# TESTED ON: T1, His-tagged human TSLP antigen (huTSLP-his) (human)
# T1 construct: Secreted from HEK293E and purified on nickel; whole entry named; also called Human TSLP-his
# PROCEDURE TEXT: ELISA, coated huTSLP-his;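 note: binding of antibodies to plate-bound TSLP read as absorbance at 450 nm after TMB colour development, EC50 derived from binding curves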
pEC50: −log10 of the molar value.
As shown below, each of these binders has a reported pEC50 value.

>  <BINDER>
hu179-26 (antibody, human IgG1, kappa, V domains shown, IgG1-YTE, kappa) VH: EVQLVQSGAEVKKPGSSVKVSCKASGYTFSNYLIEWVRQAPGQGLEWIGVIDPGNGDTNYNENFKGRATLTADKSTSTAYIELSSLRSEDTAVYYCAREDNTGTAFDYWGQGTTVTVSS VL: DIVMTQSPDSLAVSLGERATINCKASQSVSSDVTWYQQKPGQSPKLLIYYVDNHYTGVPDRFSGSGSGTDFTLTISSLQAEDVAVYYCQQHHRFPLTFGQGTKLEIKR

>  <pEC50>
9.70

$$$$
>  <BINDER>
hu179-28 (antibody, human IgG1, kappa, V domains shown, IgG1-YTE, kappa) VH: EVQLVQSGAEVKKPGSSVKVSCKASGYTFSNYLIEWVRQAPGQGLEWIGVIDPGNGDTNYNENFKGRATLTADKSTSTAYIELSSLRSEDTAVYYCAREDNTGTAFDYWGQGTTVTVSS VL: DIVMTQSPDSLAVSLGERATINCKASQSVSSDVTWYQQKPGQSPKLLIYYVSQHYTGVPDRFSGSGSGTDFTLTISSLQAEDVAVYYCQQHHRFPLTFGQGTKLEIKR

>  <pEC50>
10.04

$$$$
>  <BINDER>
hu179-14 (antibody, human IgG1, kappa, V domains shown, IgG1-YTE, kappa) VH: EVQLVQSGAEVKKPGSSVKVSCKASGYAFSNYLIEWVRQAPGQGLEWIGVIDPGNGDTNYNENFKGRATLTADKSTSTAYMELSSLRSEDTAVYYCAREDNTGTAFDYWGQGTTVTVSS VL: DIVMTQSPDSLAVSLGERATINCKASQSVSSDVTWYQQKPGQSPKLLIYYVSNHYTGVPDRFSGSGSGTDFTFTISSLQAEDVAVYYCQQHHRFPLTFGQGTKLEIKR

>  <pEC50>
9.69

$$$$
